Reference source: patent US8778871B2

Biological target: hOT7T175 (Homo sapiens, UniProt Q969F8, L364H)
Construct: expressed in transfected cells
Sequence (Q969F8 whole entry L364H): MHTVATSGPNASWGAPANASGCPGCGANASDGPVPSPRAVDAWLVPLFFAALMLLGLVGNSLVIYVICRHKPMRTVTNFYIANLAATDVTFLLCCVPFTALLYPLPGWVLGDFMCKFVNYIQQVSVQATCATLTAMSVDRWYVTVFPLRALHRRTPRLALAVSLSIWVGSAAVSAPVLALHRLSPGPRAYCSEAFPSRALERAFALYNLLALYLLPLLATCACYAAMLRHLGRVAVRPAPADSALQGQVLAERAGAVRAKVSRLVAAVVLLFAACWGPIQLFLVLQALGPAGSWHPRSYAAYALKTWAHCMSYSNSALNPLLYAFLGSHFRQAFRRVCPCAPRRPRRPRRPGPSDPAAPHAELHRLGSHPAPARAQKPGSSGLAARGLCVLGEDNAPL
Format: cell-based
Settings: hOT7T175/CHO, FLIPR, evaluation for 40 seconds after initiation of the reaction
Non-standard residues stand in square brackets, D forms with d. Residues, ends and D or L forms follow the SMILES beside them. *: point of attachment. Arg(Me) = CNC(=N)NCCC[C@H](N)C(=O)O; X4 = NC(=S)[C@H](Cc1ccccc1)N*; Abu = CC[C@H](N)C(=O)O; azaGly = NNC(=O)O
Mark Yes only when Specific Act. (EC50/MS10 EC50) stays strictly below 2. Values equal to the cut-off are No.

Below, 5 compounds whose answers are already recorded.
1) CC(C)C[C@H](NC(=O)CNC(=O)[C@H](Cc1ccccc1)NC(=O)[C@H](CO)NC(=O)[C@H](CC(N)=O)NC(=O)[C@H](Cc1c[nH]c2ccccc12)NC(=O)[C@H](CC(N)=O)NC(=O)[C@@H](N)Cc1ccc(O)cc1)C(=O)N[C@@H](CCCCNC(=N)N)C(=O)N[C@@H](Cc1ccccc1)C(N)=O : No
2) CC(C)C[C@H](NC(=O)CNC(=O)[C@H](Cc1ccccc1)NC(=O)[C@H](CO)NC(=O)[C@H](CC(N)=O)NC(=O)[C@H](Cc1c[nH]c2ccccc12)NC(=O)[C@H](CC(N)=O)NC(=O)[C@H](N)Cc1ccc(O)cc1)C(=O)N[C@@H](CCCNC(=N)N)C(=O)N[C@@H](Cc1ccccc1)C(N)=S [Compound No. 146] (H-[dY]NWNSFGLR-X4) : Yes
3) CC[C@H](NC(=O)CNC(=O)[C@H](Cc1ccccc1)NC(=O)[C@H](CO)NC(=O)[C@H](CC(N)=O)NC(=O)[C@H](Cc1c[nH]c2ccccc12)NC(=O)[C@H](CC(N)=O)NC(=O)[C@@H](N)Cc1ccc(O)cc1)C(=O)N[C@@H](CCCNC(=N)N)C(=O)N[C@@H](Cc1ccccc1)C(N)=O [Compound No. 187] (H-YNWNSFG[Abu]RF-NH2) : Yes
4) CNC(=N)NCCC[C@H](NC(=O)[C@H](CC(C)C)NC(=O)NNC(=O)[C@H](Cc1ccccc1)NC(=O)[C@@H](NC(=O)[C@H](CC(N)=O)NC(=O)[C@H](Cc1c[nH]c2ccccc12)NC(=O)[C@@H](CC(N)=O)NC(=O)[C@H](N)Cc1ccc(O)cc1)[C@@H](C)O)C(=O)N[C@@H](Cc1ccccc1)C(N)=O [Compound No. 298] (H-[dY][dN]WNTF[azaGly]L[Arg(Me)]F-NH2) : Yes
5) CNC(=N)NCCC[C@H](NC(=O)[C@H](CC(C)C)NC(=O)CNC(=O)[C@H](Cc1ccccc1)NC(=O)[C@H](CO)NC(=O)[C@H](CC(N)=O)NC(=O)[C@H](Cc1c[nH]c2ccccc12)NC(=O)[C@H](CC(N)=O)NC(=O)[C@@H](N)Cc1ccc(O)cc1)C(=O)N[C@@H](Cc1ccccc1)C(N)=O : Yes

Then this compound:
Q: Check if Specific Act. (EC50/MS10 EC50) falls below 2 for "CNC(=N)NCCC[C@H](NC(=O)[C@H](CC(C)C)NC(=O)NNC(=O)[C@H](Cc1ccccc1)NC(=O)[C@H](CO)NC(=O)[C@H](CC(N)=O)NC(=O)[C@H](Cc1c[nH]c2ccccc12)NC(=O)[C@H](CC(N)=O)NC(=O)[C@H](N)Cc1ccc(O)cc1)C(=O)N[C@@H](Cc1ccccc1)C(N)=O" .
Ans: No

###

Experiment: Blood testosterone level decreasing effect in mature male rat (2 mM peptide solution, ALZET osmotic pump)
Format: in vivo
Details: 2 mM peptide solution in distilled water, ALZET osmotic pump s.c., 6 days, Tables 28 and 29
For each record, check the reported Teststerone level in Blood: if it is below 40% write MET, else write NOT MET.

Example cases with answers are listed next.
1) 3-(3-Pyridyl)propionyl-Asn-Ser-Phe-AzaGly-Leu-Arg(Me)-Trp-NH2 [Compound No. 386] : MET
2) 3-Phenylpropionyl-Asn-Hyp-Phe-AzaGly-Leu-Arg(Me)-Trp-NH2 [Compound No. 517] : NOT MET
3) D-Tyr-D-Pya(4)-Asn-Ser-Phe-AzaGly-Leu-Arg(Me)-Trp-NH2 [Compound No. 385] : MET

Q: Report whether reported Teststerone level in Blood is lower than 40% (strictly) for D-Tyr-D-Pya(4)-Ala-Ser-Phe-AzaGly-Leu-Arg(Me)-Trp-NH2 [Compound No. 492]
Ans: NOT MET

###

Molecular target: hOT7T175 (Homo sapiens, UniProt Q969F8, L364H)
Construct: expressed in transfected cells
Format: cell-based
Settings: hOT7T175/CHO, FLIPR, evaluation for 40 seconds after initiation of the reaction
Non-standard residues stand in square brackets, D forms with d. *: point of attachment. Cyclohexanecarbonyl = O=C(C1CCCCC1)*; Arg(Me) = CNC(=N)NCCC[C@H](N)C(=O)O; Nva = CCC[C@H](N)C(=O)O; Bz = O=C(c1ccccc1)*; azaGly = NNC(=O)O
Test readout: Specific Act. (EC50/MS10 EC50)
Answer field: number only, no words.

1) 3-Phenylpropionyl-Asn-Ile-Phe-AzaGly-Leu-Arg(Me)-Trp-NH2 [Compound No. 506] : 1.3
2) Cyclohexanecarbonyl-D-Trp-Asn-Thr-Phe-AzaGly-Leu-Arg(Me)-Trp-NH2 (Cyclohexanecarbonyl-[dW]NTF[azaGly]L[Arg(Me)]W-NH2; SMILES CNC(=N)NCCC[C@H](NC(=O)[C@H](CC(C)C)NC(=O)NNC(=O)[C@H](Cc1ccccc1)NC(=O)[C@@H](NC(=O)[C@H](CC(N)=O)NC(=O)[C@@H](Cc1c[nH]c2ccccc12)NC(=O)C1CCCCC1)[C@@H](C)O)C(=O)N[C@@H](Cc1c[nH]c2ccccc12)C(N)=O) [Compound No. 668] : 1.2
3) Ac-D-Tyr-D-Trp-Asn-Thr-Phe-AzaGly-Nva-Arg(Me)-Trp-NH2 (Ac-[dY][dW]NTF[azaGly][Nva][Arg(Me)]W-NH2; SMILES CCC[C@H](NC(=O)NNC(=O)[C@H](Cc1ccccc1)NC(=O)[C@@H](NC(=O)[C@H](CC(N)=O)NC(=O)[C@@H](Cc1c[nH]c2ccccc12)NC(=O)[C@@H](Cc1ccc(O)cc1)NC(C)=O)[C@@H](C)O)C(=O)N[C@@H](CCCNC(=N)NC)C(=O)N[C@@H](Cc1c[nH]c2ccccc12)C(N)=O) [Compound No. 677] : 0.3
4) 2-Naphthoyl-Asn-Ser-Phe-AzaGly-Leu-Arg(Me)-Trp-NH2 [Compound No. 535] : 0.8
5) Benzoyl-D-Trp-Asn-Thr-Phe-AzaGly-Leu-Arg(Me)-Trp-NH2 (Bz-[dW]NTF[azaGly]L[Arg(Me)]W-NH2; SMILES CNC(=N)NCCC[C@H](NC(=O)[C@H](CC(C)C)NC(=O)NNC(=O)[C@H](Cc1ccccc1)NC(=O)[C@@H](NC(=O)[C@H](CC(N)=O)NC(=O)[C@@H](Cc1c[nH]c2ccccc12)NC(=O)c1ccccc1)[C@@H](C)O)C(=O)N[C@@H](Cc1c[nH]c2ccccc12)C(N)=O) [Compound No. 669] : 0.5

Q: Which value of Specific Act. (EC50/MS10 EC50) has been reported for Arg-Acp-D-Tyr-D-Pya(4)-Asn-Ser-Phe-AzaGly-Leu-Arg(Me)-Trp-NH2 [Compound No. 538] in the records?
Ans: 3.3

Q: I have this substance here, 3-Phenylpropionyl-Ala-Ser-Phe-AzaGly-Leu-Arg(Me)-Trp-NH2 [Compound No. 500] , and I need its recorded Specific Act. (EC50/MS10 EC50).
Ans: 3.2

###

Biological target: hOT7T175 (Homo sapiens, UniProt Q969F8, L364H)
Construct: expressed in transfected cells
Assay type: cell-based
Details: hOT7T175/CHO, FLIPR, evaluation for 40 seconds after initiation of the reaction
Non-standard residues stand in square brackets, D forms with d. Arg(Me) = CNC(=N)NCCC[C@H](N)C(=O)O; pGlu = O=C1CC[C@@H](C(=O)O)N1; azaGly = NNC(=O)O
Test readout: Specific Act. (EC50/MS10 EC50)
Would you mind answering with just the numeric figure?

1. D-Arg-Acp-D-Tyr-D-Trp-Asn-Thr-Phe-AzaGly-Leu-Arg(Me)-Trp-NH2 [Compound No. 541] : 2.0
2. pGlu-D-Tyr-D-Trp-Asn-Thr-Phe-AzaGly-Leu-Arg(Me)-Trp-NH2 ([pGlu][dY][dW]NTF[azaGly]L[Arg(Me)]W-NH2; SMILES CNC(=N)NCCC[C@H](NC(=O)[C@H](CC(C)C)NC(=O)NNC(=O)[C@H](Cc1ccccc1)NC(=O)[C@@H](NC(=O)[C@H](CC(N)=O)NC(=O)[C@@H](Cc1c[nH]c2ccccc12)NC(=O)[C@@H](Cc1ccc(O)cc1)NC(=O)[C@@H]1CCC(=O)N1)[C@@H](C)O)C(=O)N[C@@H](Cc1c[nH]c2ccccc12)C(N)=O) [Compound No. 652] : 0.9
3. D-Tyr-D-Pya(4)-Asn-Ser-Cha-Gly-Leu-Arg(Me)-Trp-NH2 [Compound No. 496] : 0.7
4. D-Tyr-D-Pya(4)-Asn-Tle-Phe-AzaGly-Leu-Arg(Me)-Trp-NH2 [Compound No. 529] : 1.8

Q: Look up Specific Act. (EC50/MS10 EC50) for this substance: Ac-D-Tyr-D-Trp-Alb-Ser-Phe-AzaGly-Leu-Arg(Me)-Trp-NH2 [Compound No. 579]
Ans: 0.6
